Data provenance is paper PMC6790002.

Examples of compounds with documented inhibition at 50 µM follow.
tested target: butyrylcholinesterase (BChE, from equine serum) (Equus caballus)
Construct: Butyrylcholinesterase (from equine serum) was bought from Sigma; purchased Sigma; host or cells: equine serum
Sequence (P81908 whole entry): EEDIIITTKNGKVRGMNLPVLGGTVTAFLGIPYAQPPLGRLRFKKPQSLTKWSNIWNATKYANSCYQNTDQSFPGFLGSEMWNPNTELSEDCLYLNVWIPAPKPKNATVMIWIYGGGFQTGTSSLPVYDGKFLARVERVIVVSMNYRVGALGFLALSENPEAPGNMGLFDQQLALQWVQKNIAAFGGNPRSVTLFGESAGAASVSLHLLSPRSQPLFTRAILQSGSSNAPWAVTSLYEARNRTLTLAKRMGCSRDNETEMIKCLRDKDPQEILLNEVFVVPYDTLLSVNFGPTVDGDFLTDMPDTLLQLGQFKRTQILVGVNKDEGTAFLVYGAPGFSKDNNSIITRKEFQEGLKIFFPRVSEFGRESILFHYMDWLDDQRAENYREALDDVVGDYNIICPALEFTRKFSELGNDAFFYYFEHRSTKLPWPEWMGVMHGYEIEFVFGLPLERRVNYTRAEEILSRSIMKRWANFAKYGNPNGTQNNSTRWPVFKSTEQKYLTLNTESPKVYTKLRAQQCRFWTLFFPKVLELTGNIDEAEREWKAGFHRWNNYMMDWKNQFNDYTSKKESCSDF
assay name: Butyrylcholinesterase inhibition, Ellman's method
Type: biochemical
condition set: at 50 µM compound
Report the value in % with no unit label.

compound: CCCCCCCCCCCCO[C@@H]1[C@H]2OC(C)(C)O[C@H]2O[C@@H]1Cn1cnc2c(Cl)nc(NC(C)=O)nc21
tested target: butyrylcholinesterase (BChE, from equine serum) (Equus caballus)
experimental value: 32.5
//
compound: CCCCCCCCCCCCO[C@@H]1[C@H]2OC(C)(C)O[C@H]2O[C@@H]1Cn1c(=O)c2c(ncn2C)n(C)c1=O
tested target: butyrylcholinesterase (BChE, from equine serum) (Equus caballus)
experimental value: 11.7
//
compound: CCCCCCCCCCCCO[C@H]1[C@@H](Cn2c(=O)c3c(ncn3C)n(C)c2=O)OC(O)[C@@H]1O (stereo partly shown)
tested target: butyrylcholinesterase (BChE, from equine serum) (Equus caballus)
experimental value: 22.9
//
compound: CCCCCCCCCCCCO[C@@H]1[C@H]2OC(C)(C)O[C@H]2O[C@@H]1Cn1ccc(=O)[nH]c1=O
tested target: butyrylcholinesterase (BChE, from equine serum) (Equus caballus)
experimental value: 28.5

So for `CCCCCCCCCCCCO[C@@H]1[C@H]2OC(C)(C)O[C@H]2O[C@@H]1Cn1ccc(=O)n(C[C@H]2O[C@@H]3OC(C)(C)O[C@@H]3[C@H]2OCCCCCCCCCCCC)c1=O` , the logged inhibition at 50 µM turned out to be 32.8

According to the records, this compound `CCCCCCCCCCCCO[C@@H]1[C@H]2OC(C)(C)O[C@H]2O[C@@H]1Cn1cnc2c(N)ncnc21` displays inhibition at 50 µM of 11.9

Entry `CCCCCCCCCCCCO[C@@H]1[C@H]2OC(C)(C)O[C@H]2O[C@@H]1Cn1c(=O)cc[nH]c1=O` ; inhibition at 50 µM = 7.5
